Data origin: patent US9238034B2

- measured_on: Fn14-TWEAK binding (Homo sapiens)
- Construct: the human Fc fragment-tagged Fn14 extracellular domain (R&D Systems) was captured; purchased R&D Systems (Fn14-Fc); Peprotech (recombinant TWEAK)
- run_description: Double sandwich ELISA small molecule screening of TWEAK binding to captured Fn14-Fc
- condition_details: first round of screening, 25 μM; read-out: average inhibition in TWEAK-Fn14 binding
outcome_measure: inhibition at 25 µM

Examples from the recorded data:
compound=CC(C)NC(=O)C(=O)NCc1n[nH]c(=O)c2ccccc12 obs_value="< 15%"
compound="Cc1cc(C2CCCN2C(=O)c2cc(-c3ccc4c(c3)OCO4)on2)on1 (stereo not shown)" obs_value="> 15%"
compound=O=C(O)C[C@@H]1NC(=O)c2ccccc2NC1=O obs_value="< 15%"
compound=O=C(NCc1ccccc1)C(=O)NCc1n[nH]c(=O)c2ccccc12 obs_value="< 15%"
compound=Cc1cc(C)n(CC(=O)NCCc2c[nH]c3ccccc23)n1 obs_value="> 15%"
compound="CCC(=O)Nc1ccccc1-c1nnc(SC(CC)C(=O)Nc2cc(OC)cc(OC)c2)[nH]c1=O (stereo not shown)" obs_value="> 15%"

Switching to the query record.
For the compound shown here, O=C(CSc1nc2c(cnn2-c2ccccc2)c(=O)[nH]1)NCc1ccc2c(c1)OCO2 , give the reported inhibition at 25 µM. > 15%

###

- measured_on: Fn14-TWEAK binding (Homo sapiens)
- Construct: the human Fc fragment-tagged Fn14 extracellular domain (R&D Systems) was captured; purchased R&D Systems (Fn14-Fc); Peprotech (recombinant TWEAK)
- run_description: Double sandwich ELISA small molecule screening of TWEAK binding to captured Fn14-Fc
- condition_details: Table 4, second screening iteration, 25 μM, average of duplicate; read-out: % Reduction in TWEAK Binding, Average
outcome_measure: inhibition at 25 µM (%)

Examples from the recorded data:
molecule="O=C(c1cn(-c2cccc(Cl)c2)nn1)N1CCSCC1 [Compound L524-0366]" outcome_measure="inhibition at 25 µM" unit_label=% obs_value=16.9
molecule="O=C(CSc1nnc(-c2ccccc2)c(-c2ccccc2)n1)Nc1cccc(Cl)c1 [Compound K784-2268]" outcome_measure="inhibition at 25 µM" unit_label=% obs_value=17
molecule="CCC(=O)Nc1ccccc1-c1ccccc1NC(=O)CC [Compound 4478-7056]" outcome_measure="inhibition at 25 µM" unit_label=% obs_value=16.5

(1) C=CCSc1nnc(-c2ccccc2NC(=O)CC)c(O)n1 [Compound 6969-1085]
(2) COc1ccc(-c2nnc(SCC(=O)Nc3ccccc3OC)nc2-c2ccc(OC)cc2)cc1 [Compound 3809-1067]
# query: argmin of inhibition at 25 µM over 1 and 2 Returns: label corresponding to the selected item. 1

###

- measured_on: Fn14-TWEAK binding (Homo sapiens)
- Construct: the human Fc fragment-tagged Fn14 extracellular domain (R&D Systems) was captured; purchased R&D Systems (Fn14-Fc); Peprotech (recombinant TWEAK)
- Sequence (Q9NP84 28-80 limits assumed): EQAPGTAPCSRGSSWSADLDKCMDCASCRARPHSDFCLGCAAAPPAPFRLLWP
- run_description: Double sandwich ELISA small molecule screening of TWEAK binding to captured Fn14-Fc
- condition_details: Table 3, first round of screening, 25 μM, replicate 1; read-out: % Reduction in TWEAK Binding, Data 1
outcome_measure: inhibition at 25 µM (%)

compound=CCC(=O)Nc1ccccc1-c1nnc(SCC(=O)Nc2ccc(OC)cc2)[nH]c1=O obs_value=14.7
compound=O=C(CSc1nc2c(cnn2-c2ccccc2)c(=O)[nH]1)NCc1ccc(F)cc1 obs_value=20.3
compound=O=C(NCc1ccccc1)C(=O)NCc1n[nH]c(=O)c2ccccc12 obs_value=13.2
compound="NC(=O)C1CCCN(c2nc3c(-c4ccccc4)csc3c(=O)[nH]2)C1 (stereo not shown)" obs_value=16.2

###

- measured_on: Fn14-TWEAK binding (Homo sapiens, UniProt Q9NP84)
- Construct: the human Fc fragment-tagged Fn14 extracellular domain (R&D Systems) was captured; purchased R&D Systems (Fn14-Fc); Peprotech (recombinant TWEAK)
- Sequence (Q9NP84 28-80 limits assumed): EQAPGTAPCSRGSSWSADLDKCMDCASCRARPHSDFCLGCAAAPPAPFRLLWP
- run_description: Double sandwich ELISA small molecule screening of TWEAK binding to captured Fn14-Fc
- condition_details: Table 5, 25 μM, replicate 1; read-out: % Reduction in TWEAK Binding, Data 1
outcome_measure: inhibition at 25 µM (%)

Examples from the recorded data:
compound=O=C(CSc1ccccc1)Nc1cccc2nsnc12 outcome_measure="inhibition at 25 µM" unit_label=% obs_value=15.5
compound=O=C(CSc1cccc2cccnc12)Nc1ccc2ccccc2c1 outcome_measure="inhibition at 25 µM" unit_label=% obs_value=15.3
compound="CCC(=O)Nc1ccccc1-c1nnc(SC(C)C(=O)Nc2cccc(Cl)c2C)[nH]c1=O (stereo not shown)" outcome_measure="inhibition at 25 µM" unit_label=% obs_value=8.79
compound=O=C(NCc1ccccc1Cl)C(=O)NCc1n[nH]c(=O)c2ccccc12 outcome_measure="inhibition at 25 µM" unit_label=% obs_value=8.55
compound=Cc1cc(NC(=O)CSc2ccccc2)ccc1Cl outcome_measure="inhibition at 25 µM" unit_label=% obs_value=21.9
compound=COc1ccccc1NC(=O)Cc1csc(NC(=O)Nc2ccccc2)n1 outcome_measure="inhibition at 25 µM" unit_label=% obs_value=13

(A) COc1cccc(NC(=O)CSc2nnc(-c3ccccc3)c(-c3ccccc3)n2)c1
(B) CCn1c(=O)c(S(=O)(=O)c2ccccc2)c(O)c2ccccc21
(C) CCCSc1nnc(-c2ccccc2NC(=O)CC)c(O)n1
(D) Cc1ccc(-c2csc3c(=O)[nH]c(N4CCCC(C(N)=O)C4)nc23)cc1 (stereo not shown)
// ascending sort on recorded inhibition at 25 µM Lab note: record answer as labels in requested order. C, A, D, B

###

- measured_on: Fn14-TWEAK binding (Homo sapiens, UniProt Q9NP84)
- Construct: the human Fc fragment-tagged Fn14 extracellular domain (R&D Systems) was captured; purchased R&D Systems (Fn14-Fc); Peprotech (recombinant TWEAK)
- Sequence (Q9NP84 28-80 limits assumed): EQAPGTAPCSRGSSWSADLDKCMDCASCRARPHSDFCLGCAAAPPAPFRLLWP
- run_description: Double sandwich ELISA small molecule screening of TWEAK binding to captured Fn14-Fc
- condition_details: Table 3, first round of screening, 25 μM, replicate 2; read-out: % Reduction in TWEAK Binding, Data 2
outcome_measure: inhibition at 25 µM (%)

molecule=O=C(CSc1nc2c(cnn2-c2ccccc2)c(=O)[nH]1)NCc1ccc(F)cc1 outcome_measure="inhibition at 25 µM" unit_label=% obs_value=8.06
molecule=O=C(Cc1c[nH]c2ccccc12)Nc1ccc2oc(=O)ccc2c1 outcome_measure="inhibition at 25 µM" unit_label=% obs_value=11.5
molecule="Cc1cc(C2CCCN2C(=O)c2cc(-c3ccc4c(c3)OCO4)on2)on1 (centres unmarked)" outcome_measure="inhibition at 25 µM" unit_label=% obs_value=6.98

(P) COc1ccccc1NC(=O)Cc1csc(NC(=O)Nc2ccccc2)n1
(Q) CCOCCCNC(=O)C(=O)NCc1n[nH]c(=O)c2ccccc12
Sort P and Q by inhibition at 25 µM descending and give the first. Returns: label corresponding to the selected item. Q

###

- measured_on: Fn14-TWEAK binding (Homo sapiens)
- Construct: the human Fc fragment-tagged Fn14 extracellular domain (R&D Systems) was captured; purchased R&D Systems (Fn14-Fc); Peprotech (recombinant TWEAK)
- run_description: Double sandwich ELISA small molecule screening of TWEAK binding to captured Fn14-Fc
- condition_details: Table 5, 25 μM, replicate 2; read-out: % Reduction in TWEAK Binding, Data 2
- Description: Double Sandwich ELISA. sTWEAK and sTWEAK variant proteins were synthesized as described above. The expression level of each IVTT synthesized sTWEAK protein was analyzed by western blot analysis and used in approximately equal amounts in the ELISA. […] Following incubation for additional 2 hr at room temperature, wells were washed 3× with DPBS containing 0.05% Tween-20 and bound biotinylated TWEAK antibody was detected by incubation with an HRP-conjugated streptavidin. […]
outcome_measure: inhibition at 25 µM (%)

Examples from the recorded data:
compound=O=C(NCc1ccccc1Cl)C(=O)NCc1n[nH]c(=O)c2ccccc12 obs_value=13.2
compound=COc1cccc(NC(=O)CSc2nnc(-c3ccc(F)cc3)c(-c3ccc(F)cc3)n2)c1 obs_value=16

(I) O=C(c1csc(S(=O)(=O)NCc2ccccn2)c1)N1CCCCCC1
(II) COc1ccc(C2N[C@H](C(=O)O)Cc3c2[nH]c2ccccc32)cc1O (stereo partly shown)
# query: argmin of inhibition at 25 µM over I and II Returns: label corresponding to the selected item. I

###

- measured_on: Fn14-TWEAK binding (Homo sapiens, UniProt Q9NP84)
- Construct: the human Fc fragment-tagged Fn14 extracellular domain (R&D Systems) was captured; purchased R&D Systems (Fn14-Fc); Peprotech (recombinant TWEAK)
- run_description: Double sandwich ELISA small molecule screening of TWEAK binding to captured Fn14-Fc
- condition_details: Table 5, 25 μM, average of duplicate; read-out: % Reduction in TWEAK Binding, Average
outcome_measure: inhibition at 25 µM (%)

Examples from the recorded data:
mol_smiles=COc1cccc(NC(=O)CSc2nnc(-c3ccccc3)c(-c3ccccc3)n2)c1 obs_value=10.5
mol_smiles=Nc1ccccc1SCC(=O)Nc1cccc2nsnc12 obs_value=19.5

(P) O=C(O)C[C@@H]1NC(=O)c2ccccc2NC1=O
(Q) COc1cccc(NC(=O)CSc2nnc(-c3ccc(Cl)cc3)c(-c3ccc(Cl)cc3)n2)c1
# query: argmin of inhibition at 25 µM over P and Q Returns: label corresponding to the selected item. P
